- System: AncSZ;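 also: 11-residue human phosphosite peptides and single-mutation variants displayed on the E. coli surface, counted by deep sequencing, each peptide's frequency after selection divided by its frequency in the unselected input library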;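 also: frequency after pTyr selection over input frequency; kinase dosed for 20-30% of maximal phosphorylation in three min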
- TEST: phosphorylation enrichment, bacterial display (enrichment ratio); higher = better substrate or ligand; peptides without Tyr show the background
Threshold rule: phosphorylation enrichment greater than or equal to 0.9 is TRUE; below that, FALSE.

residue_string="SSWKLYPRMLR [HAO1_Y50_R46S]" assigned_label=FALSE
residue_string="PVPKTYDMLKA [PKP2_Y108]" assigned_label=TRUE
residue_string="VLAHKYHGGGG [HBB_Y146_A141V]" assigned_label=FALSE
residue_string="PEAALYGRFTF [FYN_Y440_I445F]" assigned_label=TRUE
residue_string="ALEKTYNTFRS [B4GALNT2_Y538_YF]" assigned_label=FALSE
residue_string="SYTDPYAQPSL [KMT2D_Y2378_P2382S]" assigned_label=TRUE
residue_string="WISNRYLDFSS [PRPH2_Y184]" assigned_label=TRUE
residue_string="LRVKMYNFLRS [ADGRG7_Y760]" assigned_label=TRUE
residue_string="PICEGYALPHA [ACTC1_Y171_Y168C]" assigned_label=TRUE
residue_string="HMRLRYLAAEE [CEP120_Y884_Q879H]" assigned_label=TRUE
residue_string="PEQAAYQKVVA [HBB_Y131_V127E]" assigned_label=FALSE
residue_string="LRNIDYHRLDG [ATRX_Y2083_Y2084H]" assigned_label=FALSE
residue_string="TEIGQYGNGLK [MORC2_Y100_Q96E]" assigned_label=FALSE
residue_string="NDHHVYLEGTL [ALDOB_Y223]" assigned_label=FALSE
residue_string="FSDPSYVKQME [CDC5L_Y464_YF]" assigned_label=FALSE
residue_string="STGWSYAGVAV [KLHL3_Y577_R575W]" assigned_label=TRUE
residue_string="IDPYIYTPFGS [CYP3A4_Y432]" assigned_label=TRUE
residue_string="RQRTAYFSLDT [CDH1_Y68]" assigned_label=FALSE
residue_string="YFRDGYMPRQY [GSS_Y270]" assigned_label=FALSE
residue_string="SSAKTYSRMRL [NBEAL2_Y1835_E1833K]" assigned_label=FALSE
residue_string="QQTFTYDSGIH [JUP_Y22_YF]" assigned_label=TRUE
residue_string="DVCKNYAEAKD [ALB_Y343]" assigned_label=TRUE
residue_string="IYHLSYHHNCE [PDE6B_Y227_L228H]" assigned_label=TRUE
residue_string="CEETFYTMKVN [MASP2_Y401]" assigned_label=TRUE
residue_string="FSQQVYRVNLS [FAT4_Y480]" assigned_label=FALSE
residue_string="DDERGYRRVRS [GIGYF2_Y268]" assigned_label=FALSE
